For each record, write down the corresponding IC50.
# system_name: AChE (Electrophorus electricus)
# Sequence (O42275 24-633): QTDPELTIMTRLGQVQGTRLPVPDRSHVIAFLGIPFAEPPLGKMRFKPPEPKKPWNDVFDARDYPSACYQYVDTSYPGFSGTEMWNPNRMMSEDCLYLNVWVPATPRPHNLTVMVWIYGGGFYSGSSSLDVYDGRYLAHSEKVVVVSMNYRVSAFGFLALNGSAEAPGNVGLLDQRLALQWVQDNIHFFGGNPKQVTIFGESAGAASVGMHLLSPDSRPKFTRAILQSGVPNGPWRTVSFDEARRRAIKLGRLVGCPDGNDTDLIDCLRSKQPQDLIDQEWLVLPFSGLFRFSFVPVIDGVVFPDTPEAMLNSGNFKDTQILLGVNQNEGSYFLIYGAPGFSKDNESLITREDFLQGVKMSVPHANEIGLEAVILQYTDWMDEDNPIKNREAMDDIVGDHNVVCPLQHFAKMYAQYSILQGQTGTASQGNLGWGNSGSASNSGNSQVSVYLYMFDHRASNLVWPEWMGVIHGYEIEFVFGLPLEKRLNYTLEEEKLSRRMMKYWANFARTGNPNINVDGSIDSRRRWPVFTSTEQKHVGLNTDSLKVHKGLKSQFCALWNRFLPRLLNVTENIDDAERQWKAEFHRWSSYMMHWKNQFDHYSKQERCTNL
# protocol_summary: biochemical
Give bare numbers, in µM.

Study these solved cases before continuing.
compound	IC50, µM
CC1=CCC[C@@]2(C)CC[C@@H]3C[C@]12OC3(C)C [Compound 3, α-agarofuran]	26
CC(=O)OC1CCC2(C)CCC3CC2(OC3(C)C)C1(C)O (stereo not drawn) [Compound 5, 3α-acetoxy-4α-hydroxydhydro-β-agarofuran]	43
CC(=O)OC[C@@]12[C@@H](OC(C)=O)CC[C@@H](C)[C@]13OC(C)(C)[C@H](C[C@@H]2OC(=O)c1ccccc1)[C@H]3OC(C)=O [Compound 9]	695
CC1(C)OC23CC1CCC2(C)CCC(OC(=O)c1ccco1)C3CO (centres unmarked) [Compound 6]	32
CC(=O)O[C@@H]1[C@H]2[C@@H](O)[C@H](OC(=O)c3ccccc3)[C@]3(C)[C@@H](O)CC[C@@H](C)[C@@]13OC2(C)C [Compound 13]	500
CC1(C)OC23CC1CCC2(C)CCC(O)C3(C)O (stereo not drawn) [Compound 4, 3α,4α-dihydroxydihydro-β-agarofuran]	17
Cc1ccc(C(C)C)cc1O [Carvacrol, reference compound]	45

Continue with the compound presented below.
Q: Report its IC50 with AChE (Electrophorus electricus) as the test system: CC(=O)O[C@@H]1[C@H](OC(=O)c2ccccc2)[C@@]2(C)[C@@H](OC(=O)c3ccccc3)C[C@@H]3[C@@H](OC(C)=O)[C@]2(OC3(C)C)[C@@](C)(O)[C@H]1OC(C)=O [Compound 11]
Ans: 30

----------
# system_name: human recombinant COX-2 (Homo sapiens, UniProt P35354)
# Construct: purchased 560131
# Sequence (P35354 18-604): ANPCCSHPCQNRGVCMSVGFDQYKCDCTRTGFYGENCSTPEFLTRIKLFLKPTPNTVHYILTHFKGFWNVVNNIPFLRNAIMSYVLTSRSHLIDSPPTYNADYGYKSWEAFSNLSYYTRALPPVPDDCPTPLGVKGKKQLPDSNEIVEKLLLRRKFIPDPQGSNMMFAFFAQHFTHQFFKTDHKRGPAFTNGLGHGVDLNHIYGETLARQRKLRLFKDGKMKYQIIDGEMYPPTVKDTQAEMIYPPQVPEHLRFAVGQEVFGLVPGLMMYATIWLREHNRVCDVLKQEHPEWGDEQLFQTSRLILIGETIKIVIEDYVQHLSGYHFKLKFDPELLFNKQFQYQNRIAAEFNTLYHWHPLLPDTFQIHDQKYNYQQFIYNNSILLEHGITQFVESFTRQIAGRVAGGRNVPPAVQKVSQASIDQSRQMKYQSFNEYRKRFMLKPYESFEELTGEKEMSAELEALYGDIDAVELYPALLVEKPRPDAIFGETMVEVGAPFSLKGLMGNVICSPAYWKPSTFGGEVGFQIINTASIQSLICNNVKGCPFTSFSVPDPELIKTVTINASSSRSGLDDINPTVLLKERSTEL
# protocol_summary: biochemical
# Assay type: biochemical
# assay_conditions: average of 3 independent runs; read-out: COX-2 IC50 (µM)±SE
property: IC50 (µM)
One number for each entry, in µM.

Study these solved cases before continuing.
>>> df
                                   molecule                               system_name  unit_tag  reported
0  CC(=O)OC1CCC2(C)CCC3CC2(OC3(C)C)C1(C)O (stereo not drawn) [Compound 5, 3α-acetoxy-4α-hydroxydhydro-β-agarofuran]  human recombinant COX-2 (Homo sapiens, UniProt P35354)        µM       0.4
1  CC(=O)OC[C@@]12[C@@H](OC(C)=O)CC[C@@H](C)[C@]13OC(C)(C)[C@H](C[C@@H]2OC(=O)c1ccccc1)[C@H]3OC(C)=O  human recombinant COX-2 (Homo sapiens, UniProt P35354)        µM      0.07

Q: Answer with the recorded IC50 for the molecule listed here: CC(=O)O[C@@H]1[C@H]2[C@@H](O)[C@H](OC(=O)c3ccccc3)[C@]3(C)[C@@H](O)CC[C@@H](C)[C@@]13OC2(C)C
Ans: 0.11

----------
# system_name: human recombinant COX-2 (Homo sapiens, UniProt P35354)
# Construct: purchased 560131
# protocol_summary: biochemical
# Type: biochemical
Param threshold (100) applies to SI(COX-1/COX-2); output Yes when value >= threshold, No when value < threshold.

compound	discrete_label
CC(=O)O[C@@H]1[C@@H]2[C@@H](OC(C)=O)[C@]3(OC2(C)C)[C@H](C)CC[C@H](O)[C@@]3(C)[C@H]1OC(=O)c1ccoc1	No
CC(=O)O[C@@H]1[C@H](OC(=O)c2ccccc2)[C@@]2(C)[C@@H](OC(=O)c3ccccc3)C[C@@H]3[C@@H](OC(C)=O)[C@]2(OC3(C)C)[C@@](C)(O)[C@H]1OC(C)=O	Yes

Q: Check this compound for SI(COX-1/COX-2) at or above 100: CC(=O)OC1CCC2(C)CCC3CC2(OC3(C)C)C1(C)O (stereo not drawn) [Compound 5, 3α-acetoxy-4α-hydroxydhydro-β-agarofuran]
Ans: No

Q: Check this compound for SI(COX-1/COX-2) at or above 100: CC(=O)OC[C@@]12[C@@H](OC(C)=O)CC[C@@H](C)[C@]13OC(C)(C)[C@H](C[C@@H]2OC(=O)c1ccccc1)[C@H]3OC(C)=O
Ans: Yes

Q: Check this compound for SI(COX-1/COX-2) at or above 100: CC(=O)O[C@@H]1[C@H]2[C@@H](O)[C@H](OC(=O)c3ccccc3)[C@]3(C)[C@@H](O)CC[C@@H](C)[C@@]13OC2(C)C
Ans: Yes

----------
# system_name: ovine COX-1 (Ovis aries, UniProt P05979)
# Construct: purchased 560131
# Sequence (P05979 25-600): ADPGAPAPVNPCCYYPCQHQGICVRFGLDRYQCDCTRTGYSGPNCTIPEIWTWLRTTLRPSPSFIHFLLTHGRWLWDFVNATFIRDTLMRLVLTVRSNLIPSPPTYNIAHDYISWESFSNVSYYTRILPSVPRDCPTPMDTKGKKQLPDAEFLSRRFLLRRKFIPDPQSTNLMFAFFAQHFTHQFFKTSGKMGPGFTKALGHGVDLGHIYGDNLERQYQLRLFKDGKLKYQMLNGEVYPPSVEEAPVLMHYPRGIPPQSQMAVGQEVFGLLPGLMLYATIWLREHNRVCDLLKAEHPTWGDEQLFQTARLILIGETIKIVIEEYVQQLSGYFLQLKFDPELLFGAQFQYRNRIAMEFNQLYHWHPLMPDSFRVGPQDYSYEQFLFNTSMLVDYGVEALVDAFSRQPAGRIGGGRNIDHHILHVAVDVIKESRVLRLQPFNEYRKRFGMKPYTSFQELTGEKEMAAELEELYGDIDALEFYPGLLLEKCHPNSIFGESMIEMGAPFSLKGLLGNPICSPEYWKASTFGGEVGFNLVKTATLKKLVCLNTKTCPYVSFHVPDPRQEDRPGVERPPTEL
# protocol_summary: COX Inhibitor Screening Assay kit, COX-1
# Type: biochemical
property: pIC50
Answers are plain numbers, as −log10 of the molar value.

compound	system_name	reported
CC1(C)OC23CC1CCC2(C)CCC(O)C3(C)O (stereo not drawn) [Compound 4, 3α,4α-dihydroxydihydro-β-agarofuran]	ovine COX-1 (Ovis aries, UniProt P05979)	4.85
CC(=O)O[C@@H]1[C@H]2[C@@H](O)[C@H](OC(=O)c3ccccc3)[C@]3(C)[C@@H](O)CC[C@@H](C)[C@@]13OC2(C)C	ovine COX-1 (Ovis aries, UniProt P05979)	4.94
CC1(C)OC23CC1CCC2(C)CCC(OC(=O)c1ccccc1)C3CO (stereo not drawn)	ovine COX-1 (Ovis aries, UniProt P05979)	4.92
CC1=CCC[C@@]2(C)CC[C@@H]3C[C@]12OC3(C)C	ovine COX-1 (Ovis aries, UniProt P05979)	4.94
CC(=O)OC[C@@]12[C@@H](OC(C)=O)CC[C@@H](C)[C@]13OC(C)(C)[C@H](C[C@@H]2OC(=O)c1ccccc1)[C@H]3OC(C)=O	ovine COX-1 (Ovis aries, UniProt P05979)	5.06

Answer for every listed entry: what is its pIC50? The entries follow.
1. CC(=O)OC[C@]12[C@@H](OC(=O)c3ccccc3)[C@H](OC(C)=O)[C@@H]3[C@@H](OC(=O)c4ccccc4)[C@]1(OC3(C)C)[C@@](C)(O)[C@H](OC(C)=O)[C@H](OC(C)=O)[C@@H]2OC(C)=O
2. CC1(C)OC23CC1CCC2(C)CCC(OC(=O)c1ccco1)C3CO (stereo not drawn)

Ans:
1. 4.85
2. 4.90

Answer for every listed entry: what is its pIC50? The entries follow.
1. CC(=O)O[C@@H]1[C@H](OC(=O)c2ccccc2)[C@@]2(C)[C@@H](OC(=O)c3ccccc3)C[C@@H]3[C@@H](OC(C)=O)[C@]2(OC3(C)C)[C@@](C)(O)[C@H]1OC(C)=O
2. CC(=O)OC1CCC2(C)CCC3CC2(OC3(C)C)C1(C)O (stereo not drawn) [Compound 5, 3α-acetoxy-4α-hydroxydhydro-β-agarofuran]

Ans:
1. 4.88
2. 4.88

----------
# system_name: human recombinant COX-2 (Homo sapiens, UniProt P35354)
# Construct: purchased 560131
# protocol_summary: biochemical
# Format: biochemical
# assay_conditions: average of 3 independent runs; read-out: COX-2 IC50 (µM)±SE
Could you mark each record true (1) if its IC50 falls strictly under 0.2 µM, and false (0) if it equals or exceeds it?

Examples with answers:
compound	discrete_label
CC1(C)OC23CC1CCC2(C)CCC(OC(=O)c1ccccc1)C3CO (centres unmarked)	false (0)
CC(=O)OC[C@]12[C@@H](OC(=O)c3ccccc3)[C@H](OC(C)=O)[C@@H]3[C@@H](OC(=O)c4ccccc4)[C@]1(OC3(C)C)[C@@](C)(O)[C@H](OC(C)=O)[C@H](OC(C)=O)[C@@H]2OC(C)=O	false (0)
CC(=O)O[C@H]1CC[C@](C)(O)[C@]23OC(C)(C)[C@H](C[C@H](OC(=O)c4ccoc4)[C@]12C)[C@H]3OC(=O)c1ccoc1	true (1)
CC1=CCC[C@@]2(C)CC[C@@H]3C[C@]12OC3(C)C	true (1)
CC1(C)OC23CC1CCC2(C)CCC(O)C3(C)O (stereo not drawn) [Compound 4, 3α,4α-dihydroxydihydro-β-agarofuran]	false (0)

Q: I wonder whether CC1(C)OC23CC1CCC2(C)CCC(OC(=O)c1ccco1)C3CO (centres unmarked) has IC50 below 0.2 µM. Can you tell?
Ans: true (1)

Q: I wonder whether CC(=O)O[C@@H]1[C@@H]2[C@@H](OC(C)=O)[C@]3(OC2(C)C)[C@H](C)CC[C@H](O)[C@@]3(C)[C@H]1OC(=O)c1ccoc1 has IC50 below 0.2 µM. Can you tell?
Ans: false (0)

Q: I wonder whether CC(=O)O[C@@H]1[C@H](OC(=O)c2ccccc2)[C@@]2(C)[C@@H](OC(=O)c3ccccc3)C[C@@H]3[C@@H](OC(C)=O)[C@]2(OC3(C)C)[C@@](C)(O)[C@H]1OC(C)=O has IC50 below 0.2 µM. Can you tell?
Ans: true (1)
